- Tested on: THRa homodimer (NR concentration 90 nM)
- assay_procedure: PBM binding z-score (relative to random genomic background probes); higher = stronger binding; sequences stand for … in GC…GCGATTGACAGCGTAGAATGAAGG
quantity_measured: PBM binding z-score

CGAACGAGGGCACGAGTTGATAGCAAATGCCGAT; 0.134
ACTATTAGTTGAGACGCGGGCAACCGATAGGTTG; -0.769
AGAATGAGGTTGCCAAAGATCAGGGAAACGCTTG; -0.384
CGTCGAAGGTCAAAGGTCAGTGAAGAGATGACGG; 0.832
CCTAGCAGGCCACTCTGGGTCACTCAAGGCTTGA; 0.412
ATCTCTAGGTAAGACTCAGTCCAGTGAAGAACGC; 0.282
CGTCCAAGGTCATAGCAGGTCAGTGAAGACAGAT; 2.79
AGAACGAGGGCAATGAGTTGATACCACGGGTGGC; -0.484

So what does the record say about PBM binding z-score for `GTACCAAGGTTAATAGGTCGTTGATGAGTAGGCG` ?
0.196

Record request: PBM binding z-score value, item `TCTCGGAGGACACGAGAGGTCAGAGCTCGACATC`
1.64

Return reported PBM binding z-score; argument: `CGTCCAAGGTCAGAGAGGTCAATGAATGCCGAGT`
2.88

Entry under review: `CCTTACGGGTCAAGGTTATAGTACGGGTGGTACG` . Reported PBM binding z-score?
1
